Test system: U2OS
Assay: Multiplex assay against U2OS
Format: toxicity, cell-based
Details: human, 24 h, 1 µM, compound concentration 1 uM, replicate 2
Decide using Population Hoechst High Intensity Objects (%) alone. Strictly below 6%: 1.0. Equal to or above 6%: 0.0.

For orientation, consider the following solved cases.
{"COMPOUND": "CC(C)c1cc(Nc2nc(N3CCC[C@H](N)C3)ncc2C(N)=O)cc(C(C)C)n1", "CLASS_NAME": 1.0}
{"COMPOUND": "CC[C@@H]1C(=O)N(C)c2cnc(Nc3ccc(C(=O)NC4CCN(C)CC4)cc3OC)nc2N1C1CCCC1 [BI-2536]", "CLASS_NAME": 0.0}
{"COMPOUND": "Cc1ccc(NC(=O)Nc2cc(C(F)(F)F)ccc2F)cc1Nc1ccc2c(c1)NC(=O)/C2=C\\c1ccc[nH]1", "CLASS_NAME": 1.0}

Is it true that Population Hoechst High Intensity Objects (%) reported for N#Cc1cccc(C(=O)Nc2cc(-c3ccccc3)nn2-c2ccccc2)c1 is less than 6%?
1.0

Would you kindly verify if Population Hoechst High Intensity Objects (%) of Cc1c(Nc2ccc(S(=O)(=O)N3CCN(C)CC3)cc2F)nc2ccc(-c3cnn(C4CC4)c3)cn2c1=O is strictly less than 6%?
1.0

Does Cl.Cn1c2c(c3ccc(Cl)c(Cl)c31)C(C#N)C1(CCNCC1)NC2=O (stereo not drawn) have Population Hoechst High Intensity Objects (%) strictly under 6%?
0.0

Bench note: check whether Cc1c(Nc2ccc(S(=O)(=O)N3CCN(C)CC3)cc2F)nc2ccc(Nc3cnn(C4CC4)c3)cn2c1=O shows Population Hoechst High Intensity Objects (%) below 6%
1.0

Values from ChEMBL document CHEMBL4689842
